# assay notes: Multiple-dose
# Format: in vivo, human (healthy subjects)
# condition details: human, plasma, oral, 12 mg, Cmax, steady state (day 7), 12 mg twice-daily IR, fasting, n = 11, mean ± SD
value type: Cmax
Don't forget the unit after the number, please.

Query :: For the compound CC[C@@H]1CN(C(=O)NCC(F)(F)F)C[C@@H]1c1cnc2cnc3[nH]ccc3n12 , give its reported Cmax.
Result :: 73.9 ng/mL

====

# assay notes: Multiple-dose
# Type: in vivo, human (healthy subjects)
# condition details: human, plasma, oral, 15 mg, AUC0–24, steady state (day 7), 15 mg once-daily ER, fasting, n = 12, mean ± SD
value type: AUC(0-t) (ng·h/mL)
Give just the number in ng·h/mL; leave the unit off.

Query :: For the compound CC[C@@H]1CN(C(=O)NCC(F)(F)F)C[C@@H]1c1cnc2cnc3[nH]ccc3n12 [Upadacitinib] , give its reported AUC(0-t).
Result :: 279
